Target: Gal(a1-4)Gal(b1-4)Glc
Test: glycan array binding signal (z-score within array); higher = stronger binding
Settings: glycan notation: IUPAC condensed, linker removed
The full list was thinned out, with the strongest signals kept by preference.
Classification field: fulfilled = glycan array binding signal (z-score) at or over 0.4; not fulfilled = glycan array binding signal (z-score) under 0.4.

{"columns": ["BINDER", "GROUP LABEL"],
 "data": [
  ["DC-ASGPR L+GEE (Homo sapiens) (protein) MTRTYENFQYLENKVKVQGFKNGPLPLQSLLQRLRSGPCHLLLSLGLGLLLLVIICVVGFQNSKFQRDLVTLRTDFSNFTSNTVAEIQALTSQGSSLEETIASLKAEVEGFKQERQAGVSELQEHTTQKAHLGHCPHCPSVCVPVHSEMLLRVQQLVQDLKKLTCQVATLNNNGEEASTEGTCCPVNWVEHQDSCYWFSHSGMSWAEAEKYCQLKNAHLVVINSREEQNFVQKYLGSAYTWMGLSDPEGAWKWVDGTDYATGFQNWKPGQPDDWQGHGLGGGEDCAHFHPDGRWNDDVCQRPYHWVCEAGLGQTSQESH", "not fulfilled"],
  ["Erv46-EDTA (Saccharomyces cerevisiae), P39727 (protein) MKFLVNVALVFMVVYISYIYAAAPEHHHHHHDYDIPTTENLYFQGAMDSVVTRPQLVVDRDRHAKLELNMDVTFPSMPCDLVNLDIMDDSGEMQLDILDAGFTMSRLNSEGRPVGDATELHVGGNGDGTAPVNNDPNYCGPCYGAKDQSQNENLAQEEKVCCQDCDAVRSAYLEAGWAFFDGKNIEQCEREGYVSKINEHLNEGCRIKGSAQINRIQGNLHFAPGKPYQNAYGHFHDTSLYDKTSNLNFNHIINHLSFGKPIQSHSKLLGNDKRHGGAVVATSPLDGRQVFPDRNTHFHQFSYFAKIVPTRYEYLDNVVIETAQFSATFHSRPLAGGRDKDHPNTLHVRGGIPGMFVFFEMSPLKVINKEQ", "fulfilled"],
  ["AT3G44510(29) (Arabidopsis thaliana), F4J341 (protein) MEEHLQGRIKLHDGRYLAYKERGVPKDDAKFTIVLVHGFGSSKDMNFNVSQELVNEIGIYFVLYDRAGYGESDPNPKRSLKSEAYDVQELADGLEIGSRFYLIGISMGSYTVWSCLKHIPQRLAGVAMVAPVVNFRWPSIPKSLMPKDYRREVAKWSVWIANYFPGLLQWLVTQNMFSTTSMLEKNPVYFNDQDIEVLKHIKGFPMLTKEKLRERGVFGTLRSDFLVAFGDWDFDPADLPDPSLSGPEKGSSSVHIWQGYEDKVMPFQLQRCLCRKLPWIRYHEVPKGGHLIVHYDGICDAILKSLLLGEDLPMYKPKAVITEPA", "fulfilled"],
  ["Eosinophil cationic protein (ECP) (Homo sapiens), P12724 (protein) MVPKLFTSQICLLLLLGLMGVEGSLHARPPQFTRAQWFAIQHISLNPPRCTIAMRAINNYRWRCKNQNTFLRTTFANVVNVCGNQSIRCPHNRTLNNCHRSRFRVPLLHCDLINPGAQNISNCTYADRPGRRFYVVACDNRDPRDSPRYPVVPVHLDTTI", "not fulfilled"],
  ["OVGAL11 (Ovis aries), AAF64320 (protein) MDSLPNPYLQSVSLTVCYMVKIKANLLSAFGKNPELQVDFGTGTGQGGNIPFRFWYCDGMVVMNTFTDGSWQKEEKVLTDAFVPGQPFELQFLVLEKEYQVFVKNKPICQFAHRLPLQSVKMLDVRGDIVLTSVDTL", "not fulfilled"],
  ["IRp60B (Homo sapiens), Q9UGN4-3 (protein) MWLPWALLLLWVPAGDHSELSQNPKQAATQSELHYANLELLMWPLQEKPAPPREVEVEYSTVASPREELHYASVVFDSNTNRIAAQRPREEEPDSDYSVIRKT", "fulfilled"],
  ["rCnSL-A (Clitocybe nebularis) (protein) VNPNLPGPNDVFVGFRGTNNIVGAIYEKDGIKDTPLNNGADAEMGPGSYITDGLFTARIFASGSAGNNPGTTATVCKIYASGVQWRGAPKGYIPVAYFGNGPTAEQRRQTYLRTLGLPGTAIRFGNLNTNPGQGPTAPRQMVVPPGPLRSLLKASCFPAADTRLPQTLHYFEKRVDWNIITAADSQTWGH", "not fulfilled"],
  ["Surfactant Protein D (rat); Neck + Carbohydrate Recognition Domain (NCRD) (Rattus norvegicus) (protein) MLLFLLSALVLLTQPLGYLEAEMKTYSHRTMPSACTLVMCSSVESGLPGRDGRDGREGPRGEKGDPGLPGAAGQAGMPGQAGPVGPKGDNGSVGEPGPKGDTGPSGPPGPPGVPGPAGREGALGKQGNIGPQGKPGPKGEAGPKGEVGAPGMQGSAGARGAGPKGERGVPGERGVPGNTGAAGSAGAMGPQGSPGARGPPGLKGDKGIPGDKGAKGESGLPDVASLRQQVEALQGQVQHLQAAFSQYKKVELFPNGQSVGEKIFKTAGFVKPFTEAQLLCTQAGGQLASPRSAAENAALQQLVVAKNEAAFLSMTDSKTEGKFTYPTGESLVYSNWAPGEPNDDGGSEDCVEIFTNGKWNDRACGEKRLVVCEF", "not fulfilled"],
  ["LSECtin (Homo sapiens), Q6UXB4 (protein) MEQESALRELRERVTQGLAEAGRGREDVRTELFRALEAVRLQNNSCEPCPTSWLSFEGSCYFFSVPKTTWAAAQDHCADASAHLVIVGGLDEQGFLTRNTRGRGYWLGLRAVRHLGKVQGYQWVDGVSLSFSHWNQGEPNDAWGRENCVMMLHTGLWNDAPCDSEKDGWICEKKAQLLTPPSALEPRPLQHVVSWGLLTSLAPGADCQRVFSSSSTAAESQKHLAQHSPVQPSAWALGPPCRPHPNSTHADPT", "not fulfilled"]
]}

These data points were gathered from the supplement of paper PMC8728848.
